Tested on: Escherichia coli
Assay: Antibacterial activity against Escherichia coli ATCC 25922 incubated for 24 hrs by broth microdilution method
Format: functional
Settings: ATCC 25922, 24 h
measurement-kind: MIC

Query: Complete the entry with MIC for `C/C=C(\C(C)C)[C@H](O)C[C@@H](C)[C@H]1CC[C@@]2(C)[C@@H]3CC[C@H]4[C@H](C)[C@@H](O[C@@H]5OC[C@H](O)[C@H](O)[C@H]5O)CC[C@]4(O)CC3=CC[C@]12C`
Result: > 125 µg/mL

Query: Complete the entry with MIC for `C=C(C(C)C)[C@H](O)C[C@@H](C)[C@H]1CC[C@@]2(C)[C@@H]3CC[C@H]4[C@H](C)[C@@H](O[C@@H]5OC[C@@H](O)[C@H](O)[C@H]5O)CC[C@]4(O)CC3=CC[C@]12C`
Result: > 125 µg/mL

Query: Complete the entry with MIC for `CN(C)[C@@H]1C(O)=C(C(N)=O)C(=O)[C@@]2(O)C(O)=C3C(=O)c4c(O)cccc4[C@@](C)(O)[C@H]3C[C@@H]12`
Result: 2 µg/mL

---

Answer each item with its documented CC50 at 48 h.
Test: Cytotoxicity against mouse RAW264.7 cells assessed as reduction in cell viability incubated for 48 hrs by MTT assay
Assay type: cell-based
Note: unit µM is implicit; provide only the numeric part.

Query: Complete the entry with CC50 at 48 h for `C/C=C(\C(C)C)[C@H](O)C[C@@H](C)[C@H]1CC[C@@]2(C)[C@@H]3CC[C@H]4[C@H](C)[C@@H](O[C@@H]5OC[C@@H](O)[C@H](O)[C@H]5O)CC[C@]4(O)CC3=CC[C@]12C`
Result: 30.3

Query: Complete the entry with CC50 at 48 h for `C/C=C(\C(C)C)[C@H](O)C[C@@H](C)[C@H]1CC[C@@]2(C)[C@@H]3CC[C@H]4[C@H](C)[C@@H](O[C@@H]5O[C@@H](C)[C@H](O)[C@@H](O)[C@H]5O)CC[C@]4(O)CC3=CC[C@]12C`
Result: 21.9

Query: Complete the entry with CC50 at 48 h for `C/C=C(\C(C)C)[C@H](O)C[C@@H](C)[C@H]1CC[C@@]2(C)[C@@H]3CC[C@H]4[C@H](C)[C@@H](O[C@@H]5OC[C@H](O)[C@H](O)[C@H]5O)CC[C@]4(O)CC3=CC[C@]12C`
Result: 19.6

Query: Complete the entry with CC50 at 48 h for `C=C(C(C)C)[C@H](O)C[C@@H](C)[C@H]1CC[C@@]2(C)[C@@H]3CC[C@H]4[C@H](C)[C@@H](O[C@@H]5OC[C@@H](O)[C@H](O)[C@H]5O)CC[C@]4(O)CC3=CC[C@]12C`
Result: 24.2

Query: Complete the entry with CC50 at 48 h for `COc1cccc2c1C(=O)c1c(O)c3c(c(O)c1C2=O)C[C@@](O)(C(=O)CO)C[C@@H]3O[C@H]1C[C@H](N)[C@H](O)[C@H](C)O1`
Result: 0.8

Query: Complete the entry with CC50 at 48 h for `C=C(C(C)C)[C@H](O)C[C@@H](C)[C@H]1CC[C@@]2(C)[C@@H]3CC[C@H]4[C@H](C)[C@@H](O[C@@H]5O[C@@H](C)[C@H](O)[C@@H](O)[C@H]5O)CC[C@]4(O)CC3=CC[C@]12C`
Result: 35.1

Query: Complete the entry with CC50 at 48 h for `C=C(C(C)C)[C@H](O)C[C@@H](C)[C@H]1CC[C@@]2(C)[C@@H]3CC[C@H]4[C@H](C)[C@@H](O[C@@H]5OC[C@H](O)[C@H](O)[C@H]5O)CC[C@]4(O)CC3=CC[C@]12C`
Result: 26.6

---

Answer each item with its documented pIC50.
Tested on: Plasmodium falciparum
Test: Antiplasmodial activity against chloroquine-resistant Plasmodium falciparum FcB1 infected in RBC (unknown origin) incubated for 48 hrs by SYBR green dye based fluorescence analysis
Format: functional, organism-based
Conditions: FcB1, 48 h
Scale: pIC50 equals -log10([C]), with [C] in mol/L.

Query: Report measured pIC50 on Plasmodium falciparum; entry: `C/C=C(\C(C)C)[C@H](O)C[C@@H](C)[C@H]1CC[C@@]2(C)[C@@H]3CC[C@H]4[C@H](C)[C@@H](O[C@@H]5OC[C@@H](O)[C@H](O)[C@H]5O)CC[C@]4(O)CC3=CC[C@]12C`
Result: 4.33

Query: Report measured pIC50 on Plasmodium falciparum; entry: `C/C=C(\C(C)C)[C@H](O)C[C@@H](C)[C@H]1CC[C@@]2(C)[C@@H]3CC[C@H]4[C@H](C)[C@@H](O[C@@H]5OC[C@H](O)[C@H](O)[C@H]5O)CC[C@]4(O)CC3=CC[C@]12C`
Result: 4.27

Query: Report measured pIC50 on Plasmodium falciparum; entry: `C=C(C(C)C)[C@H](O)C[C@@H](C)[C@H]1CC[C@@]2(C)[C@@H]3CC[C@H]4[C@H](C)[C@@H](O[C@@H]5O[C@@H](C)[C@H](O)[C@@H](O)[C@H]5O)CC[C@]4(O)CC3=CC[C@]12C`
Result: 4.26

Query: Report measured pIC50 on Plasmodium falciparum; entry: `C=C(C(C)C)[C@H](O)C[C@@H](C)[C@H]1CC[C@@]2(C)[C@@H]3CC[C@H]4[C@H](C)[C@@H](O[C@@H]5OC[C@H](O)[C@H](O)[C@H]5O)CC[C@]4(O)CC3=CC[C@]12C`
Result: 4.28

Query: Report measured pIC50 on Plasmodium falciparum; entry: `C/C=C(\C(C)C)[C@H](O)C[C@@H](C)[C@H]1CC[C@@]2(C)[C@@H]3CC[C@H]4[C@H](C)[C@@H](O[C@@H]5O[C@@H](C)[C@H](O)[C@@H](O)[C@H]5O)CC[C@]4(O)CC3=CC[C@]12C`
Result: 4.21

src = ChEMBL document CHEMBL4414669
